tested on: BCA 225; experiment: BCA 225 shedding into culture medium, double-determinant ELISA; type: cell-based, human; details: T47D cells, 72 hr, 0.1 μg/ml TPA, 0.1 μg/ml MEZ or 0.25 μg/ml ADMB, presence or absence of 0.1 μg/ml H-7
Test Readout: BCA 225 Shedding, level of enhancement relative to control (equivalent to 1.0)

[
  {
    "Molecule": "C=C(C)[C@@]12O[C@@]3(c4ccccc4)O[C@@H]1[C@@H]1[C@@H]4O[C@]4(CO)[C@@H](O)[C@]4(O)C(=O)C(C)=C[C@H]4[C@@]1(O3)[C@H](C)[C@H]2OC(=O)/C=C/C=C/c1ccccc1",
    "Target System": "BCA 225",
    "Quantitative Result": 5.3
  },
  {
    "Molecule": "CCCCCCCCCCCCCC(=O)O[C@@H]1[C@@H](C)[C@@]2(O)[C@@H](C=C(CO)C[C@]3(O)C(=O)C(C)=C[C@@H]23)[C@H]2C(C)(C)[C@]12OC(C)=O [TPA, 12-0-tetradecanoyl-phorbol-13-acetate]",
    "Target System": "BCA 225",
    "Quantitative Result": 3.0
  },
  {
    "Molecule": "CC1CNCCN1S(=O)(=O)c1cccc2cnccc12.Cl.Cl (stereo not shown)",
    "Target System": "BCA 225",
    "Quantitative Result": 0.8
  },
  {
    "Molecule": "CCCCCCCCCCN(C)c1cc(CO)cc(NC(C)=O)c1",
    "Target System": "BCA 225",
    "Quantitative Result": 0.9
  }
]
